target: T1, MAGI1-3/6 (MBP fusion of the third of the six PDZ domains of MAGI1) (mouse, UniProt Q6RHR9-1 613-752); assay: SPR; conditions: both partners purified
T1 construct: source: E. coli BL21 DE3, purified (amylose column, Superdex 75 gel filtration)
T1 sequence (Q6RHR9 613-752): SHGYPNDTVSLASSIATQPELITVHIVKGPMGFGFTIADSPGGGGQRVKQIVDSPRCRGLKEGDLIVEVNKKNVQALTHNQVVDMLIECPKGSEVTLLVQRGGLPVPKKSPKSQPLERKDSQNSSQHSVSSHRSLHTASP
pKd: −log10 of the molar value. Ends that are not written are not given here. * marks the point of attachment. Biotin = O=C1N[C@H]2[C@H](CS[C@H]2CCCCC(=O)*)N1
readout.type: pKd

- binder: "Biotin-PMESGICTIV (also called TTC24 long; source: synthetic peptide (JPT Peptide Technologies)) [TTC24_10 (long peptide of Tetratricopeptide repeat protein 24: the last ten residues)]"
  measured.value: 4.43

Data provenance: paper PMC3206016
